# ASSAY TARGET: Torsin-1A (Homo sapiens) (UniProt O14656)
# Sequence (O14656 whole entry, looked up): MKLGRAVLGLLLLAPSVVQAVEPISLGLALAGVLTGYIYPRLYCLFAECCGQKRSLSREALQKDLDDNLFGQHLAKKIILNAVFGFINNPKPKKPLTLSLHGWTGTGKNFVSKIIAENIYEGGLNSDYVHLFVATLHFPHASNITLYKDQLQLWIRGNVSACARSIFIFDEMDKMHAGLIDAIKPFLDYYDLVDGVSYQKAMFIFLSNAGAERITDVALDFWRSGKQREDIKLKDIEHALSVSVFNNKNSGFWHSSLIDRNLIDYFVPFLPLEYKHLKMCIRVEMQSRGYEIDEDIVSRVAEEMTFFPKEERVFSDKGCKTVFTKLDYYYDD
# TEST: small-molecule binders of mutant TOR1A in lysate, primary screen, cell lysate, small-molecule microarray, COS7 lysate, 635/667 nm fluorescence (AID 1150);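 note: score pools 667 nm emission and signal to noise measuring lysate protein binding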
# CONDITION CONTEXT: COS7 hTOR1A mutant lysate, 635 nm fluorescence, higher = more signal
ENDPOINT LABEL: composite z-score
Form: value (number only, do not type unit).

Solved cases (3 shown):
COMPOUND: C=C(COC)/C(=C/C[C@@H](OC(=O)c1ccncc1)c1ccc(CO)o1)c1cnc2ccccc2c1
ASSAY TARGET: Torsin-1A (Homo sapiens) (UniProt O14656)
ENDPOINT LABEL: composite z-score
MEASURED: 0.962
//
COMPOUND: COC(=O)c1c(CC[C@@H](CO)NC(=O)N[C@H](Cn2cc(-c3ccccc3C)nn2)C(C)C)oc(C(C)=O)c1C(=O)OC
ASSAY TARGET: Torsin-1A (Homo sapiens) (UniProt O14656)
ENDPOINT LABEL: composite z-score
MEASURED: -0.171
//
COMPOUND: O=C1O[C@@H](c2ccccc2)[C@@H](c2ccccc2)N2[C@@H](c3ccc(O)cc3)[C@]3(C(=O)Nc4ccc(C#CCCO)cc43)[C@@H](C(=O)NC[C@H](O)c3ccccc3)[C@H]12
ASSAY TARGET: Torsin-1A (Homo sapiens) (UniProt O14656)
ENDPOINT LABEL: composite z-score
MEASURED: 0.229

Data request, read-out composite z-score, for CN1C(=O)C2C=CC(C(O)c3c(F)cccc3Cl)N(Nc3ccccc3)C2C1=O (stereo unspecified) -0.562

Item under review: `COCCOC(=O)N1C(=O)[C@@]2(c3cc(C#Cc4ccc(OC)cc4)ccc31)[C@H](C(=O)NC[C@H](O)c1ccccc1)[C@H]1C(=O)O[C@H](c3ccccc3)[C@H](c3ccccc3)N1[C@@H]2c1ccc(O)cc1` . Reported composite z-score? 0.527

Reported composite z-score, compound `COC(=O)[C@@]1(Cc2ccccc2)[C@H]2c3cc(C(=O)N4CCCC4)n(Cc4ccsc4Br)c3C[C@H]2CN1C(=O)c1ccccc1` : ____ 0.894

composite z-score for `O=C1O[C@@H](c2ccccc2)[C@@H](c2ccccc2)N2[C@@H](c3ccccc3OCCO)[C@]3(C(=O)Nc4ccc(C#CCCO)cc43)[C@@H](C(=O)Nc3nc4ccccc4s3)[C@H]12` ? 0.585

====

# TEST: FRG1 promoter luciferase signal modulators, primary screen, FRG1 inhibition for FSHD, cell-based, C2C12 myotubes, firefly/Renilla luciferase, luminescence (AID 1084)
# CONDITION CONTEXT: higher = more signal, called active from +8 up or from −8 down
ENDPOINT LABEL: z-score
Keep the answer to the number alone.

Example entries begin here.
MOLECULE: COCCOC(=O)N1C(=O)[C@@]2(c3cc(C#CCC(C(=O)OC)C(=O)OC)ccc31)[C@H](c1ccc(OCCO)cc1)N1[C@H](c3ccccc3)[C@H](c3ccccc3)OC(=O)[C@H]1[C@@H]2C(=O)N1CCN(c2ncccn2)CC1
ENDPOINT LABEL: z-score
MEASURED: 0.977
--
MOLECULE: CCOC(=O)C[C@H]1[C@H](OC(=O)c2ccc(-c3ccccc3)cc2)[C@@H](NC(=O)c2ccc3ccccc3c2)c2cc(OCCCO)ccc2N1C(=O)c1ccc2ccccc2n1
ENDPOINT LABEL: z-score
MEASURED: 0.247
--
MOLECULE: C=C(/C(=C/C[C@@H](OC(=O)c1ccncc1)c1ccc(OCCO)cc1)c1cc(C(=O)OC)ccc1OC)C(C)C
ENDPOINT LABEL: z-score
MEASURED: 0.317

# ---- query molecule ----
GET /values?readout=z-score&item= `O=C(O)[C@H](Cc1ccccc1)n1cc(-c2ccccn2)nn1` 1.24
